test: Standard bidirectional permeability assay, Caco-2 cells; format: in vitro ADME; conditions: human, pH 7.4; Caco-2, standard conditions
METRIC: Papp A→B (×10⁻⁶ cm/s)
Give just the number in ×10⁻⁶ cm/s; leave the unit off.

What the record says about Cc1nnc2n1-c1sc(CCC(=O)N3CCOCC3)cc1C(c1ccccc1Cl)=NC2 [Apafant, apafant] : Papp A→B is 2.3

* * *

test system: P-gp; test: Modified bidirectional permeability assay (24 h preincubation), Caco-2 cells; conditions: human, Caco-2, pH 7.4, with zosuquidar 5 µM
METRIC: Papp A→B at 1 µM (×10⁻⁶ cm/s)
Give just the number in ×10⁻⁶ cm/s; leave the unit off.

What the record says about Cc1nnc2n1-c1sc(CCC(=O)N3CCOCC3)cc1C(c1ccccc1Cl)=NC2 [Apafant, apafant] : Papp A→B at 1 µM is 13

* * *

Recorded efflux ratio at 10 µM for the following compounds
test system: P-gp (MDR1); assay: Standard bidirectional permeability assay, MDCK-MDR1 cells; assay type: in vitro ADME, canine; conditions: dog, MDCK-MDR1, pH 7.4, 10 µM in donor

What the record says about COCCc1ccc(OCC(O)CNC(C)C)cc1 (centres unmarked) [Metoprolol] : efflux ratio at 10 µM is 1

What the record says about CC(C)NCC(O)COc1cccc2ccccc12 (centres unmarked) [Propranolol] : efflux ratio at 10 µM is 0.8

* * *

assay: Standard bidirectional permeability assay, MDCK-MDR1 cells; assay type: in vitro ADME, canine; settings: dog, MDCK-MDR1, pH 7.4, 10 µM in donor, read-out: MDCK-MDR1 PappBA
Recorded Papp B→A at 10 µM for the following molecules

{"MOLECULE": "CC(C)NCC(O)COc1cccc2ccccc12 (centres unmarked)", "Papp B→A at 10 µM": "326 nm/s"}

What the record says about COCCc1ccc(OCC(O)CNC(C)C)cc1 (centres unmarked) : Papp B→A at 10 µM is 685 nm/s

* * *

test: Modified bidirectional permeability assay (24 h preincubation), Caco-2 cells; settings: human, Caco-2, pH 7.4
METRIC: Papp A→B at 1 µM
Number first, unit second: that is the form wanted.

What the record says about Cc1nnc2n1-c1sc(CCC(=O)N3CCOCC3)cc1C(c1ccccc1Cl)=NC2 [Apafant, apafant] : Papp A→B at 1 µM is 2.6 ×10⁻⁶ cm/s

* * *

experiment: Standard bidirectional permeability assay, Caco-2 cells; format: in vitro ADME; settings: human, pH 7.4; Caco-2, standard conditions
METRIC: efflux ratio
Reply briefly: the number, and no unit.

What the record says about Cc1nnc2n1-c1sc(CCC(=O)N3CCOCC3)cc1C(c1ccccc1Cl)=NC2 [Apafant, apafant] : efflux ratio is 15.9

* * *

Recorded Papp B→A at 10 µM for the following compounds
experiment: Standard bidirectional permeability assay, Caco-2 cells; assay type: in vitro ADME; settings: human, Caco-2, pH 7.4; standard assay; 10 µM in donor; read-out: Caco-2 PappBA
Number first, unit second: that is the form wanted.

{"COMPOUND": "CC(C)NCC(O)COc1cccc2ccccc12 (centres unmarked) [Propranolol]", "REPORTED VALUE": "69.5 ×10⁻⁶ cm/s"}

Now, please, on to the next compound.
What the record says about COCCc1ccc(OCC(O)CNC(C)C)cc1 (centres unmarked) [Metoprolol] : Papp B→A at 10 µM is 41 ×10⁻⁶ cm/s

* * *

assay: Standard bidirectional permeability assay, Caco-2 cells; type: in vitro ADME; conditions: human, pH 7.4; Caco-2, standard assay; read-out: intrinsic permeability
METRIC: Papp (×10⁻⁶ cm/s)
Give just the number in ×10⁻⁶ cm/s; leave the unit off.

What the record says about Cc1nnc2n1-c1sc(CCC(=O)N3CCOCC3)cc1C(c1ccccc1Cl)=NC2 [Apafant, apafant] : Papp is 14
